This collection of values is drawn from ChEMBL document CHEMBL1177685.

Target: ATP-binding cassette sub-family C member 2 (Homo sapiens, UniProt Q92887)
Sequence (Q92887 whole entry): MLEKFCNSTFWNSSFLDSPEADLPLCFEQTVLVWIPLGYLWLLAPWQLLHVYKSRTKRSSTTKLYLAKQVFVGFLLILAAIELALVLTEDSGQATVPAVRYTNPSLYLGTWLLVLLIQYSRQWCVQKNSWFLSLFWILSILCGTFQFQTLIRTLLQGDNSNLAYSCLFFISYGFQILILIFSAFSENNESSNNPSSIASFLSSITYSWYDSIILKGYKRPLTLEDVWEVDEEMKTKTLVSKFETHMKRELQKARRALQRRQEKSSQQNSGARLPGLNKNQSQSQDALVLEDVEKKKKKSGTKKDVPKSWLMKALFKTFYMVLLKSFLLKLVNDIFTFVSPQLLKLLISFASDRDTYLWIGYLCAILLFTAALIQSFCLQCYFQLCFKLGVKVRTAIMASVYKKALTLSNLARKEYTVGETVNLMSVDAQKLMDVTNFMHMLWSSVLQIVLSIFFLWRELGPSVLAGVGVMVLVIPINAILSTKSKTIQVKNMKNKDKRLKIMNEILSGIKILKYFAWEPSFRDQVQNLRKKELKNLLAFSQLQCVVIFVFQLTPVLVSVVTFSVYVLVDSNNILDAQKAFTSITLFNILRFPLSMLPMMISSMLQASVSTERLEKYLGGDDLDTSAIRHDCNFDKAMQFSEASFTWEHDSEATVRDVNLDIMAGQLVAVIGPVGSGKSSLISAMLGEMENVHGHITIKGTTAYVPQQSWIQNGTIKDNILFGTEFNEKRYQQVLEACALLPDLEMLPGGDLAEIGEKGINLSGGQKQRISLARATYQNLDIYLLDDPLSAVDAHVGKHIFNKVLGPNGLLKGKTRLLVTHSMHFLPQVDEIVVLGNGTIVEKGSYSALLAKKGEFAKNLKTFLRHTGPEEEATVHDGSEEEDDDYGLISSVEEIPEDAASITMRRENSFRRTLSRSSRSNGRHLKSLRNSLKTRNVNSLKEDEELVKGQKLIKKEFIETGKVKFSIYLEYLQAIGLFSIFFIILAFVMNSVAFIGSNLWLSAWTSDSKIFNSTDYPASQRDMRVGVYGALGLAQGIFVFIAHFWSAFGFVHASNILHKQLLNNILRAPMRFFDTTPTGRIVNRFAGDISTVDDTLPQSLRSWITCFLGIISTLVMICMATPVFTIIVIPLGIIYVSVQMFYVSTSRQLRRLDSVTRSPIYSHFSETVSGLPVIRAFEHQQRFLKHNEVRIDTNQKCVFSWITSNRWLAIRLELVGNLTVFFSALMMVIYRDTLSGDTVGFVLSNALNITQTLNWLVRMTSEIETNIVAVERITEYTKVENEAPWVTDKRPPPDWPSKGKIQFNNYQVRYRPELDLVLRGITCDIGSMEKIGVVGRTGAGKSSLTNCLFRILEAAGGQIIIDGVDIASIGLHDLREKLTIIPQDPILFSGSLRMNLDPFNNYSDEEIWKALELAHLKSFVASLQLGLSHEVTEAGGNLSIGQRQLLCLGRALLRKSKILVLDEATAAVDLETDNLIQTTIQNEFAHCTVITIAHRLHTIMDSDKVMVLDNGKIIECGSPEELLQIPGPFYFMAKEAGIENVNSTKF
Assay: Inhibition of MRP2 expressed in human A2780 cells at 10 uM relative to control
Type: cell-based
Details: a2780, 10 µM

{"lineNotation": "OC[C@]12C3N(Cc4ccc(OCc5ccccc5)cc4)C4[C@@]5(CO)C(N(Cc6ccc(OCc7ccccc7)cc6)C1[C@]3(CO)[C@@H]5c1ccccc1)[C@]4(CO)[C@@H]2c1ccccc1", "Ratio": 0.75}
{"lineNotation": "OC[C@]12C3N(Cc4ccncc4)C4[C@@]5(CO)C(N(Cc6ccncc6)C1[C@]3(CO)[C@@H]5c1ccccc1)[C@]4(CO)[C@@H]2c1ccccc1", "Ratio": 0.8}
{"lineNotation": "OC[C@]12C3N(Cc4cccnc4)C4[C@@]5(CO)C(N(Cc6cccnc6)C1[C@]3(CO)[C@@H]5c1ccccc1)[C@]4(CO)[C@@H]2c1ccccc1", "Ratio": 0.9}
{"lineNotation": "OC[C@]12C3N(Cc4ccccc4)C4[C@@]5(CO)C(N(Cc6ccccc6)C1[C@]3(CO)[C@@H]5c1ccccc1)[C@]4(CO)[C@@H]2c1ccccc1", "Ratio": 1.02}
{"lineNotation": "OC[C@]12C3N(Cc4cccc(OCc5ccccc5)c4)C4[C@@]5(CO)C(N(Cc6cccc(OCc7ccccc7)c6)C1[C@]3(CO)[C@@H]5c1ccccc1)[C@]4(CO)[C@@H]2c1ccccc1", "Ratio": 0.97}
{"lineNotation": "OC[C@]12C3N(Cc4ccc(O)cc4)C4[C@@]5(CO)C(N(Cc6ccc(O)cc6)C1[C@]3(CO)[C@@H]5c1ccccc1)[C@]4(CO)[C@@H]2c1ccccc1", "Ratio": 0.82}
{"lineNotation": "OC[C@]12C3N(Cc4ccccc4)C4[C@@]5(CO)C(N(Cc6ccccc6)C1[C@]3(CO)[C@@H]5c1ccncc1)[C@]4(CO)[C@@H]2c1ccncc1", "Ratio": 0.74}
{"lineNotation": "OC[C@]12C3N(Cc4ccccc4)C4[C@@]5(CO)C(N(Cc6ccccc6)C1[C@]3(CO)[C@@H]5c1ccc(O)cc1)[C@]4(CO)[C@@H]2c1ccc(O)cc1", "Ratio": 0.63}
{"lineNotation": "OC[C@]12C3N(Cc4ccccc4)C4[C@@]5(CO)C(N(Cc6ccccc6)C1[C@]3(CO)[C@@H]5c1cccc(OCc3ccccc3)c1)[C@]4(CO)[C@@H]2c1cccc(OCc2ccccc2)c1", "Ratio": 0.97}
{"lineNotation": "COc1ccc(CN2C3[C@]4(CO)C5N(Cc6ccc(OC)cc6)C6[C@@](CO)(C2[C@]6(CO)[C@H]4c2ccccc2)[C@H](c2ccccc2)[C@@]35CO)cc1", "Ratio": 1.1}
{"lineNotation": "COc1ccc(CN2C3[C@]4(CO)C5N(Cc6ccc(OC)cc6)C6[C@@](CO)(C2[C@]6(CO)[C@H]4c2ccc(OC)cc2)[C@H](c2ccc(OC)cc2)[C@@]35CO)cc1", "Ratio": 1.25}
